Origin of measurements: the supplement of paper PMC11451515

# System: NOMO1
# Run Description: cell viability relative to DMSO control; higher = less cytotoxic
# Test Settings: RPMI 5 mM glucose + 10% FBS; 48 h; 15.4 µM
Catalogue of cell viability readings, one per entry.
Value Type: cell viability (%)

[
  {
    "Compound": "CC[C@H](CC[C@@H](C)[C@H]1CC[C@H]2[C@@H]3C\\C=C/4C[C@@H](O)CC[C@]4(C)[C@H]3CC[C@]12C)C(C)C",
    "Test System": "NOMO1",
    "Value Type": "cell viability",
    "Readout Number": 92.4
  },
  {
    "Compound": "CC(C)C(C)/C=C/C(C)C1CCC2C3=CC=C4CC(O)CCC4(C)C3CCC21C (centres undefined)",
    "Test System": "NOMO1",
    "Value Type": "cell viability",
    "Readout Number": 83
  },
  {
    "Compound": "Cc1c(CCOc2ccc(C(=O)O)cc2)c2cc(Cl)ccc2n1C(c1ccccc1)c1ccccc1",
    "Test System": "NOMO1",
    "Value Type": "cell viability",
    "Readout Number": 99.9
  },
  {
    "Compound": "CN1[C@@H]2CC(OC(=O)[C@@H](CO)c3ccccc3)C[C@H]1[C@H]1O[C@H]12 (some centres undefined)",
    "Test System": "NOMO1",
    "Value Type": "cell viability",
    "Readout Number": 81.4
  }
]

---

# Tested on: P12-Ichikawa
# Run Description: cell viability relative to DMSO control; higher = less cytotoxic
# Test Settings: HPLM + 10% dialyzed FBS; 48 h; 0.000781 µM

[
  {
    "Molecule": "CC1=C(/C=C/C(C)=C/C=C/C(C)=C/C=C/C=C(C)/C=C/C=C(C)/C=C/C2=C(C)CCCC2(C)C)C(C)(C)CCC1",
    "cell viability (%)": 112
  },
  {
    "Molecule": "CC1(C)Cc2c(-c3ccccc3)c(-c3ccc(Cl)cc3)c(CC(=O)O)n2C1",
    "cell viability (%)": 120
  },
  {
    "Molecule": "CC1(C)CC(=O)c2c(C(F)(F)F)nn(-c3ccc(C(N)=O)c(NC4CCC(O)CC4)c3)c2C1 (centres undefined)",
    "cell viability (%)": 90.3
  },
  {
    "Molecule": "C[C@]12CC[C@@H]3c4ccc(OC(=O)N(CCCl)CCCl)cc4CC[C@H]3[C@@H]1CC[C@@H]2OP(=O)([O-])[O-].[Na+].[Na+]",
    "cell viability (%)": 118
  }
]

---

# Test system: P12-Ichikawa
# Run Description: cell viability relative to DMSO control; higher = less cytotoxic
# Test Settings: HPLM + 10% dialyzed FBS; 48 h; 0.0211 µM

[
  {
    "Molecule": "C/C=C(/C)C(=O)O[C@H]1C(C)=C2[C@H]([C@@H]1OC(=O)CCCCCCC)[C@@](C)(OC(C)=O)C[C@H](OC(=O)CCC)[C@@]1(O)[C@H]2OC(=O)[C@@]1(C)O",
    "cell viability": "109%"
  },
  {
    "Molecule": "CN(C)c1ccc(O)c2c1C[C@H]1C[C@H]3[C@H](N(C)C)C(O)=C(C(N)=O)C(=O)[C@@]3(O)C(O)=C1C2=O",
    "cell viability": "97.4%"
  },
  {
    "Molecule": "Cc1ccccc1N1C(=O)c2cc([S+](N)(=O)[O-])c(Cl)cc2NC1C (stereo unspecified)",
    "cell viability": "132%"
  },
  {
    "Molecule": "CC(C)NCC(O)COc1ccc(COCCOC(C)C)cc1 (stereo unspecified)",
    "cell viability": "103%"
  },
  {
    "Molecule": "CC1(C)CCC[C@]2(C)[C@H]3CC(=O)O[C@]3(C)CC[C@@H]12",
    "cell viability": "114%"
  },
  {
    "Molecule": "O=C([O-])C(O)Cc1ccc(O)c(O)c1 (stereo unspecified)",
    "cell viability": "110%"
  }
]
